The measured values listed here are drawn from the supplement of paper PMC10126150.

# Tested on: ATP;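 note: ATP exposure 15 min at 22 °C before imaging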
# method notes: switch fluorescence ratio, 500 uM ATP over buffer (Cy3 cluster intensity, sum of 5 cycles each) (fold (ratio)); higher = stronger signal-on switching upon ATP binding; sequences stand for … in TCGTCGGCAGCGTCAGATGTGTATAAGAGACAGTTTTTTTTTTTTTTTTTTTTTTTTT…TC
# particulars: aptamer strand: ATP DNA aptamer (quencher-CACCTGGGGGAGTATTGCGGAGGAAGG + anchor), 100 nM annealed; ATP concentration: 500 uM
property name: switch fluorescence ratio
Could you keep your reply to the number by itself?

Use these answered entries as a reference point.
| sequence content | value reported |
| --- | --- |
| TCCTAGGGGG | 1 |
| TTACCGTACG | 1.45 |
| GTTCATGCAG | 0.993 |
| TTGTTAACAG | 0.997 |

Enquiry: Determine from records and report switch fluorescence ratio for TAATCAGGTA
Return: 1.1

Enquiry: Dear colleague, please send me the reported switch fluorescence ratio for GTATTCTGTT when you can.
Return: 0.997

Enquiry: Answer with the recorded switch fluorescence ratio for the sequence listed here: GGGGGTTCCT
Return: 1

Enquiry: Give recorded switch fluorescence ratio. ATTCCAGACG
Return: 1.01

Enquiry: Output switch fluorescence ratio of TTTTTGTTGC
Return: 1.02

Enquiry: Report measured switch fluorescence ratio; entry is AATTAACTTT
Return: 0.985

Enquiry: Answer with the recorded switch fluorescence ratio of AGAAGTGGCG only.
Return: 1.01

Enquiry: Return value of switch fluorescence ratio for input TTGTGTGGGC , no commentary.
Return: 1.04

Enquiry: Return value of switch fluorescence ratio for input TAAAAAGTGG , no commentary.
Return: 0.976

Enquiry: Name the recorded switch fluorescence ratio of the item CGGAAACTTT in your answer.
Return: 1.01

Enquiry: Hello, please tell me recorded switch fluorescence ratio for this one: GGGGCTTGGC
Return: 0.999

---

A collection of sequences and their measured switch fluorescence ratio
# Tested on: ATP;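 note: ATP exposure 15 min at 22 °C before imaging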
# method notes: switch fluorescence ratio, 500 uM ATP over buffer (Cy3 cluster intensity, sum of 5 cycles each) (fold (ratio)); higher = stronger signal-on switching upon ATP binding; sequences stand for … in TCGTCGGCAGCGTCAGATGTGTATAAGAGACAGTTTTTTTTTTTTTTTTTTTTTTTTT…TC
# particulars: aptamer strand: ATP DNA aptamer (quencher-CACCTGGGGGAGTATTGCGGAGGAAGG + anchor), 100 nM annealed; ATP concentration: 500 uM
Answer with a bare number; do not write a unit.

| sequence content | test target | value reported |
| --- | --- | --- |
| GGGGGAATCC | ATP | 1.06 |
| GGCTGAAGAG | ATP | 1.02 |
| TATCGTTGTT | ATP | 1 |
| GAAAGGAATG | ATP | 1.04 |
| TTTACTTGTA | ATP | 1.01 |

Now consider the entry below.
Enquiry: Retrieve switch fluorescence ratio measured for GAATGGCATG and print it.
Return: 0.991

---

# System: ATP;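 note: ATP exposure 15 min at 22 °C before imaging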
# method notes: switch fluorescence ratio, 500 uM ATP over buffer (Cy3 cluster intensity, sum of 5 cycles each) (fold (ratio)); higher = stronger signal-on switching upon ATP binding; sequences stand for … in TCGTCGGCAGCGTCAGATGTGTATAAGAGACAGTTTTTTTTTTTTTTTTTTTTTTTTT…TC
# particulars: aptamer strand: ATP DNA aptamer (quencher-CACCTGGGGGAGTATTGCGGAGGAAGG + anchor), 100 nM annealed; ATP concentration: 500 uM
switch fluorescence ratio overview

See these solved cases before continuing.
| sequence content | switch fluorescence ratio |
| --- | --- |
| TGGGGTATTA | 0.998 |
| AGAATATTTT | 0.963 |

Enquiry: Indicate its recorded switch fluorescence ratio; the sequence in question is TAAACCGCGG
Return: 1.01

Enquiry: Fill in switch fluorescence ratio for record CAAGGTGTGT
Return: 1.01

Enquiry: For the sequence GCGGGGGGCA , give its measured switch fluorescence ratio value.
Return: 1.03

Enquiry: Give reported switch fluorescence ratio value for TTTTCGACGA
Return: 1.27

---

# Test system: ATP;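 note: ATP exposure 15 min at 22 °C before imaging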
# method notes: switch fluorescence ratio, 500 uM ATP over buffer (Cy3 cluster intensity, sum of 5 cycles each) (fold (ratio)); higher = stronger signal-on switching upon ATP binding; sequences stand for … in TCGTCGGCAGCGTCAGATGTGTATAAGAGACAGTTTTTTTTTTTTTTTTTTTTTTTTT…TC
# particulars: aptamer strand: ATP DNA aptamer (quencher-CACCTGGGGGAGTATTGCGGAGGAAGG + anchor), 100 nM annealed; ATP concentration: 500 uM
property name: switch fluorescence ratio
Give the figure only, with no unit attached.

Take a look at these entries with their results.
| sequence content | test target | value reported |
| --- | --- | --- |
| CGATTGGGGG | ATP | 1.01 |
| TTTTATGGGA | ATP | 0.985 |
| ACGATGAAGG | ATP | 1.01 |

Enquiry: Note switch fluorescence ratio for the sequence shown: CCTTTTGGGC
Return: 0.976

Enquiry: Supply switch fluorescence ratio value. Item: TTGTGTCGGG
Return: 0.998

Enquiry: Using known records, supply switch fluorescence ratio for GAACCGGTAC
Return: 1.21

Enquiry: Give a short answer stating reported switch fluorescence ratio for TTAGGCGCAT .
Return: 1.03

Enquiry: Please list switch fluorescence ratio recorded for the sequence ACCGGGGCAA
Return: 1.13

Enquiry: // Input: GGCTAGAATC . Output its switch fluorescence ratio only.
Return: 0.986

Enquiry: Specify switch fluorescence ratio for GACGTCAGCG and stop.
Return: 1.05

Enquiry: State its switch fluorescence ratio: CGTAACCCGT
Return: 0.98

Enquiry: Specify reported switch fluorescence ratio for the sequence shown: GGCCCGGTGC
Return: 1.08

Enquiry: Specify measured switch fluorescence ratio for ACCCTCGCAG .
Return: 1.75

Enquiry: Please indicate switch fluorescence ratio recorded for AAGGTGAATT
Return: 1.06

Enquiry: For GCTGAAATTT , write its switch fluorescence ratio.
Return: 1.01

Enquiry: Quick one: give measured switch fluorescence ratio for GAAGTCTGGG
Return: 0.977

Enquiry: Give the measured switch fluorescence ratio for CTAGATGTTG
Return: 0.977

Enquiry: State, in one line, measured switch fluorescence ratio of CGATTGCATG
Return: 1.05

---

# Test system: ATP;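 note: ATP exposure 15 min at 22 °C before imaging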
# method notes: switch fluorescence ratio, 500 uM ATP over buffer (Cy3 cluster intensity, sum of 5 cycles each) (fold (ratio)); higher = stronger signal-on switching upon ATP binding; sequences stand for … in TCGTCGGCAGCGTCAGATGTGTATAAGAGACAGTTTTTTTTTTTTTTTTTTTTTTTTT…TC
# particulars: aptamer strand: ATP DNA aptamer (quencher-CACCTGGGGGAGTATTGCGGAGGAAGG + anchor), 100 nM annealed; ATP concentration: 500 uM
property name: switch fluorescence ratio
The response must contain the number and no unit.

Example sequences with recorded switch fluorescence ratio:
| sequence content | switch fluorescence ratio |
| --- | --- |
| GGCTTCTAAG | 0.994 |
| GATGTCTGCT | 1.02 |
| TAGGGAAATC | 0.983 |

Enquiry: Name the recorded switch fluorescence ratio of the sequence listed here: TTGGGTAAGT
Return: 1.02

Enquiry: Consider the sequence GTTATTATTA and give its recorded switch fluorescence ratio.
Return: 0.993

Enquiry: Look up and state reported switch fluorescence ratio for GACACAGTGT
Return: 0.98

---

# System: ATP;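 note: ATP exposure 15 min at 22 °C before imaging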
# method notes: switch fluorescence ratio, 500 uM ATP over buffer (Cy3 cluster intensity, sum of 5 cycles each) (fold (ratio)); higher = stronger signal-on switching upon ATP binding; sequences stand for … in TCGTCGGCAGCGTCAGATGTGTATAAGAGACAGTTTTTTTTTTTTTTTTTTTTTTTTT…TC
# particulars: aptamer strand: ATP DNA aptamer (quencher-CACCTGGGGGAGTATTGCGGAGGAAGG + anchor), 100 nM annealed; ATP concentration: 500 uM
# switch fluorescence ratio values compiled below
// keep it numeric: no unit symbol after the value

| sequence content | property name | value reported |
| --- | --- | --- |
| AAGTCCGGCA | switch fluorescence ratio | 1 |
| GCTTTAGGAT | switch fluorescence ratio | 1.01 |
| TTGTTGGGAA | switch fluorescence ratio | 0.998 |
| TTATCTAATC | switch fluorescence ratio | 0.972 |
| AGTGATTTCG | switch fluorescence ratio | 1.01 |

Enquiry: Respond only with switch fluorescence ratio recorded for CTGGTCATTT
Return: 0.997

Enquiry: Find the measured switch fluorescence ratio of CCAGTGATGG and report it.
Return: 1

Enquiry: Provide measured switch fluorescence ratio value, entry: TGTGAGTTGG
Return: 1

Enquiry: Give a short answer stating reported switch fluorescence ratio for TTGCTCATAA .
Return: 1

Enquiry: // Input: CCGTGGTAGG . Output its switch fluorescence ratio only.
Return: 1.01

---

# Tested on: ATP;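 note: ATP exposure 15 min at 22 °C before imaging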
# method notes: switch fluorescence ratio, 500 uM ATP over buffer (Cy3 cluster intensity, sum of 5 cycles each) (fold (ratio)); higher = stronger signal-on switching upon ATP binding; sequences stand for … in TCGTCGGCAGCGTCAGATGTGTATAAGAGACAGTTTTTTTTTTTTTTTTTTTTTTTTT…TC
# particulars: aptamer strand: ATP DNA aptamer (quencher-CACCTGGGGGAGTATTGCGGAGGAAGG + anchor), 100 nM annealed; ATP concentration: 500 uM
Recorded switch fluorescence ratio by entry
Please give only the number in your answer, with no unit.

| sequence content | property name | value reported |
| --- | --- | --- |
| CTATTACGTC | switch fluorescence ratio | 0.984 |
| TCTCTAAAGA | switch fluorescence ratio | 1.04 |
| ACTGCTACGA | switch fluorescence ratio | 1.36 |
| GGTATTGGGG | switch fluorescence ratio | 1.03 |
| ATTTTACGTG | switch fluorescence ratio | 1 |
| GAGTTACGGC | switch fluorescence ratio | 1.22 |
| GTTGGTCTAT | switch fluorescence ratio | 0.978 |
| TTCAAATTTA | switch fluorescence ratio | 0.995 |

Enquiry: Complete the entry with switch fluorescence ratio for GAATGTGGGT
Return: 0.994

Enquiry: Give the measured switch fluorescence ratio for GTTAGTAGGA
Return: 1.02

Enquiry: Provide only the value of recorded switch fluorescence ratio for TATCTGGGGT
Return: 1.02
